Hello, the source for this data is paper PMC9230623, in case you need it.

propertyLabel: melting point

Use these answered entries as a reference point.
{"columns": ["compound", "melting point"],
 "data": [
  ["COc1ccc(/C(C)=N/NC(=O)/C(=C/c2cc(OC)c(OC)c(OC)c2)NC(=O)c2cc(OC)c(OC)c(OC)c2)cc1OC [Compound 5f]", "234 to 236 °C"],
  ["COc1cc(/C=C(\\NC(=O)c2cc(OC)c(OC)c(OC)c2)C(=O)N/N=C/c2ccc(N(C)C)cc2)cc(OC)c1OC [Compound 4i]", "243 to 245 °C"],
  ["COc1cc(/C=C(\\NC(=O)c2cc(OC)c(OC)c(OC)c2)C(=O)N/N=C/c2ccco2)cc(OC)c1OC [Compound 3]", "212 to 214 °C"],
  ["COc1cc(/C=N/NC(=O)/C(=C/c2cc(OC)c(OC)c(OC)c2)NC(=O)c2cc(OC)c(OC)c(OC)c2)cc(OC)c1 [Compound 4k]", "214 to 216 °C"]
]}

Consider COc1cc(/C=C(\NC(=O)c2cc(OC)c(OC)c(OC)c2)C(=O)N/N=C(\C)c2ccc(Br)cc2)cc(OC)c1OC [Compound 5c] . Its measured melting point is 244 to 246 °C

Consider COc1ccc(/C(C)=N/NC(=O)/C(=C/c2cc(OC)c(OC)c(OC)c2)NC(=O)c2cc(OC)c(OC)c(OC)c2)cc1 [Compound 5e] . Its measured melting point is 241 to 243 °C

###

propertyLabel: melting point

{"columns": ["chemicalSmiles", "result"],
 "data": [
  ["COc1cc(/C=C(\\NC(=O)c2cc(OC)c(OC)c(OC)c2)C(=O)N/N=C(\\C)c2ccccc2)cc(OC)c1OC", "260 to 262 °C"]
]}

Consider `COc1cc(/C=C(\NC(=O)c2cc(OC)c(OC)c(OC)c2)C(=O)N/N=C(\C)c2ccc(Cl)cc2)cc(OC)c1OC` . Its measured melting point is 249 to 251 °C

Consider `COc1cc(/C=C(\NC(=O)c2cc(OC)c(OC)c(OC)c2)C(=O)N/N=C(\C)c2cc(OC)c(OC)c(OC)c2)cc(OC)c1OC` . Its measured melting point is 211 to 213 °C

Consider `COc1cc(/C=C(\NC(=O)c2cc(OC)c(OC)c(OC)c2)C(=O)N/N=C/c2ccc(Cl)cc2)cc(OC)c1OC` . Its measured melting point is 233 to 235 °C

Consider `COc1ccc(/C=N/NC(=O)/C(=C/c2cc(OC)c(OC)c(OC)c2)NC(=O)c2cc(OC)c(OC)c(OC)c2)cc1` . Its measured melting point is 217 to 219 °C

Consider `C/C=N/NC(=O)/C(=C/c1cc(OC)c(OC)c(OC)c1)NC(=O)c1cc(OC)c(OC)c(OC)c1` . Its measured melting point is 224 to 226 °C

###

Listing: melting point of selected compounds

Consider `COc1cc(/C=C(\NC(=O)c2cc(OC)c(OC)c(OC)c2)C(=O)N/N=C/c2ccccc2[N+](=O)[O-])cc(OC)c1OC` . Its measured melting point is 239 to 241 °C

Consider `COc1cc(/C=C(\NC(=O)c2cc(OC)c(OC)c(OC)c2)C(=O)N/N=C/c2ccc(C)cc2)cc(OC)c1OC` . Its measured melting point is 208 to 210 °C

Consider `COc1cc(/C=C(\NC(=O)c2cc(OC)c(OC)c(OC)c2)C(=O)N/N=C/c2ccccc2O)cc(OC)c1OC` . Its measured melting point is 220 to 222 °C

Consider `COc1cc(/C=C(\NC(=O)c2cc(OC)c(OC)c(OC)c2)C(=O)N/N=C(\C)c2ccc(O)cc2)cc(OC)c1OC` . Its measured melting point is 258 to 260 °C

Consider `COc1cc(/C=N/NC(=O)/C(=C/c2cc(OC)c(OC)c(OC)c2)NC(=O)c2cc(OC)c(OC)c(OC)c2)ccc1O` . Its measured melting point is 226 to 228 °C

Consider `COc1cc(/C=C(\NC(=O)c2cc(OC)c(OC)c(OC)c2)C(=O)N/N=C/c2ccc(F)cc2)cc(OC)c1OC` . Its measured melting point is 201 to 203 °C
